Target: T1, SARS-COV-2 RBD (SARS-COV-2, UniProt P0DTC2 319-539)
T1 construct: also called WT RBD
Assay: ELISA, RBD coated
Assay Metric: EC50 (ng/mL)

Binder: C889 (antibody, V domains shown, IgG; V domains only) VH: EVQLVESGGGLVQPGGSLRLSCAVSGFTVSSNYMTWVRQAPGKGLEWVSLIYSGTSAFYADSVKGRFTISRDNSKNTLYLQMSSLRVNDTAIYYCARDLRKDDGYSYGAFDYWGQGTLVTVSS VL: QSALTQPASVSGSPGQSITISCSGTSSDVGAHNYVSWYQQYPGKAPKLMIFDVTDRPSGVSNRFSGSKSGNTASLTISGLQAEDEADYYCTSYTTNRSWVFGGGTKVTVL
Assay Metric: EC50
Unit Label: ng/mL
Result: 0.8
--
Binder: C893 (antibody, V domains shown, IgG; V domains only) VH: EVQLVQSGAEVKKPGESLKISCKGSGYYFTRQWIGWVRQMPGKGLEWMGIIYPGDSDTRYSPSFQGQVTISADKSISTAYLQWSSLKASDTAMYYCARGGWDPAEYSSSGGGGLDAFDIWGQGTMVTVSS VL: EIVLTQSPATLSLSPGERATLSCRASQSVSSYLAWYQQRPGRAPRLLIYDASNRATGIPGRFSGSGSGTDFSLTISSLEPEDFAVYYCQQRSSWPLTFGQGTRLEIK
Assay Metric: EC50
Unit Label: ng/mL
Result: 3.73
--
Binder: C875 (antibody, V domains shown, IgG; V domains only) VH: QVQLVQSGAEVKQPGASVKISCKASGYIFTTYFMHWVRQAPGQGLEWLGIIDPTISGASLAQKFQGRVTMTSDTSTSTVYMEMRSLRSDDTALYFCARASTSTSSWSEALSLGSWGQGTLVTVSS VL: QSVLTQPPSVSGAPGQGVSISCTGSSSNVGAGYGVHWYQQLPGTTPKLLIYDNNSRPAGVPDRFSGSKSGTSASLAIAGLQPEDEADYYCQSWDNGLSGSGVVFGGGTKVTVL
Assay Metric: EC50
Unit Label: ng/mL
Result: 3.5
